System: HCT-116
Assay: NCI tumour cell line growth inhibition, 48 h
The source made the active and inactive calls. Cut-off read from the data, not from the text of the source: active = GI50 up to about 1.1 µM and inactive = higher. Where a SMILES comes first, the peptide text is derived from it. The star is where a group is joined. Cbz = O=C(OCc1ccccc1)*
Metric: GI50

Req: Using known records, supply GI50 for CC(C)(C)c1ccc(C(O)c2ccc(C(C)(C)C)cc2)cc1
Resp: 12.1 µM (inactive)

Req: Look up and report measured GI50 for this entry: O=C(O)c1oc(C(=O)O)c(C(=O)O)c1C(=O)O
Resp: > 100 µM (inactive)

Req: Please give the documented GI50 of CCOC(=O)C(CC(=O)OC)NC(=O)C(CC(=O)OC)NC(=O)C(CC(=O)OC)NC(=O)C(CC(=O)OC)NC(=O)OCc1ccccc1 (stereo not given) (Cbz-D(OMe)D(OMe)D(OMe)D(OMe)-OEt; configuration not given here)
Resp: > 100 µM (inactive)

Req: Give recorded GI50. C/C(=N\O)c1ccc2cc(Br)c3ccccc3c2c1
Resp: 11.9 µM (inactive)

Req: Look up and report measured GI50 for this entry: CC(=O)/C=C1\CC(=O)N(C)c2ccccc2N1
Resp: > 100 µM (inactive)

Req: Identify the reported GI50 for the following entry. CC(C)=Cc1cc(C(=O)Nc2ccc(Cl)c(Cl)c2)nc(N)n1
Resp: > 100 µM (inactive)

Req: Please list GI50 recorded for the compound C(=C\Nc1ccc(Oc2ccccc2)cc1)/C=N/c1ccc(Oc2ccccc2)cc1
Resp: 17.4 µM (inactive)

Req: Return value of GI50 for input COc1cc(CO)c(CC(=O)NCCCc2ccccc2)cc1OC , no commentary.
Resp: > 100 µM (inactive)

Req: Look up and report measured GI50 for this entry: O=C1Cc2ccccc2N1/N=C\c1ccc(O)cc1
Resp: > 100 µM (inactive)

Req: Given CC(C)=CCC[C@@H](C)C1=C(Nc2ccccc2F)C(=O)C(C)=C(O)C1=O , respond with its GI50.
Resp: 4.58 µM (inactive)

====

Tested on: NCI-H460
Test: NCI tumour cell line growth inhibition, 48 h
The source made the active and inactive calls. No stated cut-off is given here; in the data, active = GI50 up to about 1.1 µM and inactive = higher.
Would you kindly list GI50 for each of these compounds?

Req: Please report GI50 for the following compound: O=c1c2ccccc2nc(-c2ccc(Br)cc2)n1NC1OC(CO)C(O)C(O)C1O (centres undefined)
Resp: > 100 µM (inactive)

Req: Supply measured GI50 of N#CC1(c2nc3ccccc3o2)C(=O)C(=O)N(C2C3CC4CC(C3)CC2C4)C(=O)C1=O (centres undefined) in your reply.
Resp: > 100 µM (inactive)

Req: # return recorded GI50 for entry O=c1cc(N2CCOCC2)[nH]c(=O)n1-c1cccc(Cl)c1
Resp: > 100 µM (inactive)

Req: Retrieve GI50 measured for CCC1CCC2C3CC=C4CC(OC(C)=O)C(N)CC4(C)C3CCC12C (centres undefined) and print it.
Resp: 1.87 µM (inactive)

Req: Give GI50 for the following compound: COc1cc2c(cc1O)CC1c3c(cc(O)c(OC)c3-2)CCN1C (centres undefined)
Resp: > 100 µM (inactive)

Req: Give me measured GI50, please, for this compound: O=C1c2ccccc2C(=O)c2c1ccc(O)c2O [ATHRAQUINONES A]
Resp: 38.9 µM (inactive)

Req: Name the recorded GI50 of the compound listed here: CC12CCC(C(Nc3cc(C(F)(F)F)cc(C(F)(F)F)c3)C1=O)C2(C)C (centres undefined)
Resp: > 100 µM (inactive)

Req: Please look at this compound and report its GI50: COC(=O)CSc1nnc(-c2ccccc2)[nH]1
Resp: > 100 µM (inactive)

Req: Report GI50, nothing else, for this compound: CN(C)/N=C(/c1nc2ccc(Cl)cc2nc1O)C(O)c1ccc(C(O)/C(=N\N(C)C)c2nc3ccc(Cl)cc3nc2O)cc1 (centres undefined)
Resp: > 100 µM (inactive)
